- System: bacterial PDF (peptide deformylase), enzyme from E. coli (Escherichia coli, UniProt P0A6K3)
- Sequence (P0A6K3 whole entry): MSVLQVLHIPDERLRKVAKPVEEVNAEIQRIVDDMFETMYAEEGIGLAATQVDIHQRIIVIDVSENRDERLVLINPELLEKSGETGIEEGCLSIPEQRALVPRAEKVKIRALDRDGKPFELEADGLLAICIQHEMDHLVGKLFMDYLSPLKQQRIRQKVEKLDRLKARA
- Protocol Description: Bacterial peptide deformylase (PDF) assay, enzyme from E. coli
- Format: biochemical
- Condition: PDF enzyme from E. coli; substrate f-Met-Ala; TNBS readout at 420 nm; read-out: IC50 (enzyme from E. coli)
Property Label: pIC50
Lab note — pIC50 values are minus log10 of concentrations in M.

pIC50 for CCN1CC(CC(=O)NO)S(=O)(=O)c2ccc(C(=O)NC3CC4CCC(C3)N4C)cc21 (stereo not shown) is 4.86

----------
- System: bacterial PDF (peptide deformylase), enzyme from S. aureus (Staphylococcus aureus)
- Sequence (P68826 1-183): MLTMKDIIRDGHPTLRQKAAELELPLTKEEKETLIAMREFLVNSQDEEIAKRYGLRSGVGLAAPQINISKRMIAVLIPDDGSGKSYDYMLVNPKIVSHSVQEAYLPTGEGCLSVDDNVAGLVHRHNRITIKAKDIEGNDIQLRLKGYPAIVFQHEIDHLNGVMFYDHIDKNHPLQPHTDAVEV
- Protocol Description: Bacterial peptide deformylase (PDF) assay, enzyme from S. aureus
- Type: biochemical
- Condition: PDF enzyme from S. aureus; substrate f-Met-Ala; TNBS readout at 420 nm; read-out: IC50 (enzyme from S. aureus)
This section presents compounds with their documented pIC50 values.
Remember, pIC50 is on a log scale: it is -log10 of the molar concentration.

INSERT INTO assay_data (compound, property_label, readout_value) VALUES
  ('O=C(CC1CN(Cc2cccc(F)c2)c2ccccc2S1(=O)=O)NO (stereo not shown)', 'pIC50', 4.55),
  ('CCN1CC(CC(=O)NO)S(=O)(=O)c2ccc(C(=O)NCc3ccccc3Br)cc21 (stereo not shown)', 'pIC50', 5.02),
  ('O=C(CC1CN(CC2CCC2)c2ccccc2S1(=O)=O)NO (stereo not shown)', 'pIC50', 5.42),
  ('CCN1CC(CC(=O)NO)S(=O)(=O)c2ccc(C(=O)Nc3cc(-c4cccs4)n[nH]3)cc21 (stereo not shown)', 'pIC50', 5.52),
  ('CCN1CC(CC(=O)NO)S(=O)(=O)c2ccc(C(=O)Nc3cc[nH]n3)cc21 (stereo not shown)', 'pIC50', 4.51),
  ('CCN1CC(CC(=O)NO)S(=O)(=O)c2ccc(C(=O)NCc3cccs3)cc21 (stereo not shown)', 'pIC50', 5.47),
  ('CCCCN1CC(CC(=O)NO)S(=O)(=O)c2ccccc21 (stereo not shown)', 'pIC50', 5.09),
  ('CCN1CC(CC(=O)NO)S(=O)(=O)c2ccc(C(=O)NCc3ccccc3[N+](=O)[O-])cc21 (stereo not shown)', 'pIC50', 4.95);

Sure, the documented pIC50 for CCN1CC(CC(=O)NO)S(=O)(=O)c2ccc(C(=O)NCc3ccccc3)cc21 (stereo not shown) is 5.05

The recorded pIC50 for CCN1CC(CC(=O)NO)S(=O)(=O)c2ccc(C(=O)NCc3ccc(Br)cc3)cc21 (stereo not shown) is 5.47

----------
- System: UniProt P0A6K3
- Protocol Description: Bacterial peptide deformylase (PDF) assay, enzyme from E. coli
- Format: biochemical
pIC50: −log10 of the molar value.
Label 1 (yes) when pIC50 is at or above 5; otherwise label 0 (no).

Examples with answers:
INSERT INTO measurements (compound, class_assignment) VALUES
  ('CCN1CC(CC(=O)NO)S(=O)(=O)c2ccc(C(=O)NCc3ccncc3)cc21 (stereo not drawn) [Example 28]', '0 (no)'),
  ('O=C(CC1CN(Cc2ccccc2)c2ccccc2S1(=O)=O)NO (stereo not drawn) [Example 9]', '0 (no)');

Query string: Kindly determine if pIC50 recorded for CCCN1CC(CC(=O)NO)Sc2ccccc21 (stereo not drawn) [Example 5] is above or exactly 5.
Result string: 1 (yes)

Query string: Item O=C(CC1CN(CC2CCC2)c2ccccc2S1(=O)=O)NO (stereo not drawn) [Example 36] with pIC50 of 5 or above?
Result string: 1 (yes)

Query string: Identify whether the reported pIC50 of the following compound is 5 or greater: O=C(CC1CNc2ccccc2S1(=O)=O)NO (stereo not drawn) [Example 2]
Result string: 1 (yes)

Query string: Threshold query (pIC50 >= 5) on CCN1CC(CC(=O)NO)S(=O)(=O)c2ccc(C(=O)NCc3ccc(OC(F)(F)F)cc3)cc21 (stereo not drawn) [Example 26]
Result string: 1 (yes)

Query string: Evaluate CCN1CC(CC(=O)NO)S(=O)(=O)c2ccc(C(=O)NCc3ccccc3[N+](=O)[O-])cc21 (stereo not drawn) [Example 18] : pIC50 at minimum 5?
Result string: 0 (no)

Query string: Please indicate if the recorded pIC50 for CCCN1CC(CC(=O)NO)S(=O)(=O)c2ccccc21 (stereo not drawn) [Example 6] meets or exceeds 5.
Result string: 1 (yes)

Query string: Please indicate if the recorded pIC50 for CCN1CC(CC(=O)NO)Sc2ccccc21 (stereo not drawn) [Example 3] meets or exceeds 5.
Result string: 1 (yes)

----------
- System: bacterial PDF (peptide deformylase), enzyme from S. aureus (Staphylococcus aureus, UniProt P68826)
- Protocol Description: Bacterial peptide deformylase (PDF) assay, enzyme from S. aureus
- Format: biochemical
- Condition: PDF enzyme from S. aureus; substrate f-Met-Ala; TNBS readout at 420 nm; read-out: IC50 (enzyme from S. aureus)
Returns: string. Value is YES if measured IC50 is below 8 µM, and NO if it is greater than or equal to it.

For orientation, consider the following solved cases.
INSERT INTO measurements (compound, class_assignment) VALUES
  ('O=C(CC1CN(CC2CC2)c2ccccc2S1(=O)=O)NO (stereo not drawn)', 'YES'),
  ('CCN1CC(CC(=O)NO)S(=O)(=O)c2ccc(C(=O)Nc3nccs3)cc21 (stereo not drawn)', 'NO'),
  ('CCCN1CC(CC(=O)NO)Sc2ccccc21 (stereo not drawn)', 'NO'),
  ('CCN1CC(CC(=O)NO)S(=O)(=O)c2ccc(C(=O)NCc3ccc(C(F)(F)F)cc3)cc21 (stereo not drawn)', 'YES'),
  ('CCN1CC(CC(=O)NO)S(=O)(=O)c2ccc(C(=O)NCc3ccc([N+](=O)[O-])cc3)cc21 (stereo not drawn)', 'YES'),
  ('CCN1CC(CC(=O)NO)S(=O)(=O)c2ccc(C(=O)NCc3ccc(F)cc3)cc21 (stereo not drawn)', 'NO'),
  ('CCN1CC(CC(=O)NO)S(=O)(=O)c2ccc(C(=O)NCc3ccccc3F)cc21 (stereo not drawn)', 'NO'),
  ('CCN1CC(CC(=O)NO)S(=O)(=O)c2ccc(C(=O)NCc3cccc(C(F)(F)F)c3)cc21 (stereo not drawn)', 'NO'),
  ('CCCN1CC(CC(=O)NO)S(=O)(=O)c2ccccc21 (stereo not drawn)', 'YES'),
  ('CCN1CC(CC(=O)NO)S(=O)(=O)c2ccc(C(=O)NCc3ccc(N(C)C)cc3)cc21 (stereo not drawn)', 'NO');

Query string: Bench note: check whether CCN1CC(CC(=O)NO)S(=O)(=O)c2ccc(C(=O)NCc3cccc(OC)c3)cc21 (stereo not drawn) shows IC50 below 8 µM
Result string: YES

Query string: I'd appreciate it if you could check whether CCN1CC(CC(=O)NO)S(=O)(=O)c2ccc(C(=O)NCc3cccc([N+](=O)[O-])c3)cc21 (stereo not drawn) has IC50 smaller than 8 µM.
Result string: NO

Query string: is_below(IC50, 8 µM) for O=C(CC1CN(CC2CCCC2)c2ccccc2S1(=O)=O)NO (stereo not drawn) ?
Result string: NO

----------
The entries below come with measured pIC50 values attached.
- System: bacterial PDF (peptide deformylase), enzyme from S. aureus (Staphylococcus aureus, UniProt P68826)
- Protocol Description: Bacterial peptide deformylase (PDF) assay, enzyme from S. aureus
- Assay type: biochemical
- Condition: PDF enzyme from S. aureus; substrate f-Met-Ala; TNBS readout at 420 nm; read-out: IC50 (enzyme from S. aureus)
pIC50 field: float, defined as -log10 of concentration (mol/L).

Worked examples, 3 compounds total:
INSERT INTO assay_data (compound, readout_value) VALUES
  ('CCN1CC(CC(=O)NO)S(=O)(=O)c2ccc(C(=O)NCc3ccccc3OC)cc21 (stereo not drawn)', 5.82),
  ('CCN1CC(CC(=O)NO)S(=O)(=O)c2ccc(C(=O)NCc3ccncc3)cc21 (stereo not drawn)', 4.15),
  ('CCN1CC(CC(=O)NO)S(=O)(=O)c2ccc(C(=O)NCc3cccc(F)c3)cc21 (stereo not drawn)', 4.86);

# pIC50 (compound: CCN1CC(CC(=O)NO)S(=O)(=O)c2ccc(C(=O)N3CCN(C)CC3)cc21 (stereo not drawn) ) is 3.89

According to the records, this compound CCN1CC(CC(=O)NO)S(=O)(=O)c2ccc(C(=O)NCc3ccc(OC)cc3)cc21 (stereo not drawn) displays pIC50 of 4.88

get_value(item= O=C(CC1CN(Cc2ccccc2)c2ccccc2S1(=O)=O)NO (stereo not drawn) , readout=pIC50) returns 4.67

Measured pIC50 of CCN1CC(CC(=O)NO)S(=O)(=O)c2ccccc21 (stereo not drawn) : 5.70

Just so you know, measured pIC50 for O=C(CC1CNc2ccccc2S1(=O)=O)NO (stereo not drawn) came out at 5.82

// pIC50 value for CCN1CC(CC(=O)NO)S(=O)(=O)c2ccc(C(=O)NCc3cccc(Br)c3)cc21 (stereo not drawn) : 5.01
